Data provenance: patent US20170240535A1

- assay protocol: Pharmacokinetics of Compound 1 in plasma and brain after IP and PO administration (discrete PK)
- Type: in vivo
- condition context: mouse, brain/plasma; PO 10 mg/kg, male C57BL/6 mice; read-out: AUCbrain/AUCplasma

| item smiles | Kp |
| --- | --- |
| Nc1ccc(-c2ccccc2)cc1NC(=O)c1cc2ccc(N3CCNCC3)cc2cn1 | 10.8 |

----------
- assay protocol: Pharmacokinetics in plasma and brain after IV administration
- Type: in vivo
- condition context: brain, IV 1 mg/kg, male C57BL/6 mice
# label = True if AUClast < 1000 ng·h/g else False

| molecule | classification |
| --- | --- |
| Nc1ccc(-c2ccccc2)cc1NC(=O)c1cc2ccc(N3CCNCC3=O)cc2cn1 [Compound 4] | True |
| Nc1ccc(-c2ccc(F)cc2)cc1NC(=O)c1cc2ccc(N3CCNCC3)cc2cn1 [Compound 9] | False |
| Nc1ccc(-c2ccncc2)cc1NC(=O)c1cc2ccc(N3CCNCC3)cc2cn1 [Compound 3] | False |
| Nc1ccc(-c2cccs2)cc1NC(=O)c1cc2ccc(N3CCNCC3)cc2cn1 [Compound 2] | False |
| Nc1ccc(-c2ccccc2)cc1NC(=O)c1cc2ccc(N3CCNCC3)cc2cn1 [Compound 1] | False |

----------
- assay protocol: Pharmacokinetics of Compound 1 in plasma and brain after IP and PO administration (discrete PK)
- Format: in vivo
- condition context: mouse; plasma, PO 3 mg/kg, male C57BL/6 mice; read-out: Terminal t1/2 (converted)

| item smiles | half-life (min) |
| --- | --- |
| Nc1ccc(-c2ccccc2)cc1NC(=O)c1cc2ccc(N3CCNCC3)cc2cn1 | 206 |

----------
- assay protocol: Pharmacokinetics of Compound 1 in plasma and brain after IP and PO administration (discrete PK)
- Type: in vivo
- condition context: mouse; plasma, IP 10 mg/kg, male C57BL/6 mice

| item smiles | Cmax |
| --- | --- |
| Nc1ccc(-c2ccccc2)cc1NC(=O)c1cc2ccc(N3CCNCC3)cc2cn1 | 1020 ng/mL |

----------
- assay protocol: Pharmacokinetics of Compound 1 in plasma and brain after IP and PO administration (discrete PK)
- Assay type: in vivo
- condition context: mouse; brain, IP 10 mg/kg, male C57BL/6 mice

| molecule | Tmax (h) |
| --- | --- |
| Nc1ccc(-c2ccccc2)cc1NC(=O)c1cc2ccc(N3CCNCC3)cc2cn1 [Compound 1] | 4 |

----------
# key: entry, value: clearance
- assay protocol: Pharmacokinetics in plasma and brain after IV administration
- Type: in vivo
- condition context: mouse; plasma, IV 1 mg/kg, male C57BL/6 mice, PK cassette
measured endpoint: clearance (mL/min/kg)

| molecule | measured endpoint | recorded value |
| --- | --- | --- |
| Nc1ccc(-c2cccs2)cc1NC(=O)c1cc2ccc(N3CCNCC3)cc2cn1 [Compound 2] | clearance | 10.3 |
| Nc1ccc(-c2ccncc2)cc1NC(=O)c1cc2ccc(N3CCNCC3)cc2cn1 [Compound 3] | clearance | 20.8 |
| Nc1ccc(-c2ccccc2)cc1NC(=O)c1cc2ccc(N3CCNCC3)cc2cn1 [Compound 1] | clearance | 5.55 |
| Nc1ccc(-c2ccccc2)cc1NC(=O)c1cc2ccc(N3CCNCC3=O)cc2cn1 [Compound 4] | clearance | 4.37 |

----------
- assay protocol: Pharmacokinetics of Compound 1 in plasma and brain after IP and PO administration (discrete PK)
- Type: in vivo
- condition context: mouse; brain, IP 10 mg/kg, male C57BL/6 mice; read-out: Terminal t1/2 (converted)
measured endpoint: half-life (h)

| item smiles | measured endpoint | unit symbol | recorded value |
| --- | --- | --- | --- |
| Nc1ccc(-c2ccccc2)cc1NC(=O)c1cc2ccc(N3CCNCC3)cc2cn1 | half-life | h | 7.13 |
